System: HTT mRNA
Experiment: Splicing assay (RT-qPCR) monitoring HTT splice variants, canonical (CJ) and alternative (AJ) junction
Format: cell-based
Conditions: increase in AJ mRNA, 50% response, A673 or K562 cell line, 24 hours
Description: Compounds described herein were used to modulate RNA transcript abundance in cells. The expression of a target mRNA was measured by detecting the formation of an exon-exon junction in the canonical transcript (CJ). A compound mediated exon-inclusion event was detected by observing an increase in formation of a new junction with an alternative exon (AJ). […] After treatment, the levels of the HTT mRNA targets were determined from each sample of cell lysate by cDNA synthesis followed by qPCR. […]
Entries and their measured AC50 follow.

Let me know recorded AC50 for Cn1cc2cc(-c3cc4cn([C@H]5CCNC[C@@H]5F)nc4s3)cc(F)c2n1 [Compound 190] , thanks.
100 to 1000 nM

Let me know recorded AC50 for Cn1cc2c(F)cc(-n3cc4cc(C5CCNCC5)sc4n3)cc2n1 [Compound 174] , thanks.
> 10000 nM

* * *

Test system: HTT mRNA
Test: Splicing assay (RT-qPCR) monitoring HTT splice variants, canonical (CJ) and alternative (AJ) junction
Format: cell-based
Conditions: increase in AJ mRNA, 50% response, A673 or K562 cell line, 24 hours
OUTCOME MEASURE: AC50

Let me know recorded AC50 for Cc1cn2nc(-c3cc4cn(C5CCNCC5)nc4s3)cc2c(C)n1 [Compound 222] , thanks.
1 to 10 µM

Let me know recorded AC50 for Cc1cn2cc(-n3cc4cc(C5CCNCC5)sc4n3)cc(Cl)c2n1 [Compound 165] , thanks.
< 0.1 µM

Let me know recorded AC50 for CN(c1cc2sc(-c3ccc(-c4cn[nH]c4)cc3O)nc2s1)[C@@H]1C[C@H]2CC[C@@H](C1)N2 [Compound 191] , thanks.
> 10 µM

Let me know recorded AC50 for Cn1cc2cc(-n3cc4sc(C5CCNCC5)cc4n3)cc(F)c2n1 [Compound 105] , thanks.
0.1 to 1 µM

* * *

Entries and their measured AC50 follow.
Test system: HTT mRNA
Experiment: Splicing assay (RT-qPCR) monitoring HTT splice variants, canonical (CJ) and alternative (AJ) junction
Assay type: cell-based
Conditions: increase in AJ mRNA, 50% response, A673 or K562 cell line, 24 hours

[
  {
    "COMPOUND": "Cn1cc2cc(-c3nc4sc(C5CCNCC5)cc4s3)cc(F)c2n1 [Compound 106]",
    "AC50": "< 100 nM"
  },
  {
    "COMPOUND": "CC1CN(c2cc3sc(-c4cc(F)c5nn(C)cc5c4)nc3s2)CCN1C (centres unmarked) [Compound 128]",
    "AC50": "1000 to 10000 nM"
  },
  {
    "COMPOUND": "COc1c(-c2cc3cn(C4CCNCC4)nc3s2)cc2cn(C)nc2c1F [Compound 218]",
    "AC50": "100 to 1000 nM"
  },
  {
    "COMPOUND": "CCNC1CCN(c2cc3sc(-c4cc(F)c5nn(C)cc5c4)nc3s2)CC1 [Compound 137]",
    "AC50": "100 to 1000 nM"
  }
]

Now look at this one.
Let me know recorded AC50 for Cc1cn2cc(-n3cc4cc(C5CCNCC5)sc4n3)cc(C)c2n1 [Compound 155] , thanks.
100 to 1000 nM
